target: Human NLRP3 (Homo sapiens (Human), UniProt Q96P20); assay: Human NLRP3 speck formation assay (Test A), nigericin triggered ASC-speck formation in ASC-GFP reporter monocytes
Sequence (Q96P20 whole entry): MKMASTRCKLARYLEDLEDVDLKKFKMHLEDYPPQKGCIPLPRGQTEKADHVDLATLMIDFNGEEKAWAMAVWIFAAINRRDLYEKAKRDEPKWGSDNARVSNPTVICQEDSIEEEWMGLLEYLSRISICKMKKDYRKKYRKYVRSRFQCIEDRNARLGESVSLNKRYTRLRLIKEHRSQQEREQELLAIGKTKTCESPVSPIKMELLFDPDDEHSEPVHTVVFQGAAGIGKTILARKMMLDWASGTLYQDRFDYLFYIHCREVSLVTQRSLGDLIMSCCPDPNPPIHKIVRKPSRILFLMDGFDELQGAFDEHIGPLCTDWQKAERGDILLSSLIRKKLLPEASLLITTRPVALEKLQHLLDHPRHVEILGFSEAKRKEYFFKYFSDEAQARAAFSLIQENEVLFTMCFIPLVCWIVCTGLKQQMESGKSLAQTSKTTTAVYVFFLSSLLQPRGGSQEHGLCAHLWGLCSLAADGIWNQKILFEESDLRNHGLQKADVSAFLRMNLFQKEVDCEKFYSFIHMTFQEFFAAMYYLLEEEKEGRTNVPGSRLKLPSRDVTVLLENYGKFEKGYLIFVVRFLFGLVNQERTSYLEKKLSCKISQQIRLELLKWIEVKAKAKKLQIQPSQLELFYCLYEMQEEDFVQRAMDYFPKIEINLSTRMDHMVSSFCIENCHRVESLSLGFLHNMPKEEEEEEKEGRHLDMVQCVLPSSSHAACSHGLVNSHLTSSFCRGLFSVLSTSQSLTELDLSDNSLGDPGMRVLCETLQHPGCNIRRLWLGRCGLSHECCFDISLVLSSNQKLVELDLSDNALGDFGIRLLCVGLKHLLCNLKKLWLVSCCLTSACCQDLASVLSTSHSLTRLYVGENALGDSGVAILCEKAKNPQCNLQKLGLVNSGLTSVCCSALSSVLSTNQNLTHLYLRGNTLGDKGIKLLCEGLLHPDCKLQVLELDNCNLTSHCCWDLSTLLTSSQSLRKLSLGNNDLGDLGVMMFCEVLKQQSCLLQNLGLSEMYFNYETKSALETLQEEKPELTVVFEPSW
pEC50: −log10 of the molar value.
observed.property: pEC50

compound	test.result
Oc1cc(C2CC2)ccc1-c1nnc(N[C@@H]2CCC[C@H](O)C2)c2cnccc12 [Example 52]	7.28
Oc1cc(C(F)(F)F)ccc1-c1nnc(N[C@@H]2CCCC[C@@H]2O)c2ccccc12 [Example 23]	6.81
Oc1cc(C(F)(F)F)ccc1-c1nnc(N[C@H]2CCC[C@@H]2O)c2ccccc12 [Example 22]	5.62

1. Oc1cc(OC(F)(F)F)ccc1-c1nnc(N[C@@H]2CCCC[C@H]2O)c2cnccc12 [Example 56]
2. Oc1cc(C(F)(F)F)ccc1-c1nnc(N[C@H]2C[C@@H](O)C2)c2ccccc12 [Example 33]
Problem: Just curious, which one has the larger pEC50 reading, 1 or 2 ? Returns: label corresponding to the selected item.
Solution: 1
(1: 7.60, 2: 6.69)

1. Cc1ccc2c(-c3ccc(C(F)(F)F)cc3O)nnc(NC[C@H](O)CO)c2c1 [Example 14]
2. OC[C@@H](O)CNc1nnc(-c2ccc(Cl)cc2O)c2ccccc12 [Example 5]
Problem: Please choose the item with the lower pEC50 value from this pair: 1 and 2 Kindly state the label of the option you pick.
Solution: 2
(2: 6.91, 1: 7.74)

A. Oc1cc(C(F)(F)F)ccc1-c1nnc(N[C@@H]2CC[C@@H](O)C2)c2cnccc12 [Example 59]
B. Oc1cc(C(F)(F)F)ccc1-c1nnc(N[C@H]2CCCC[C@H]2O)c2ccccc12 [Example 25]
Problem: Field: lower pEC50 | Options: A / B State your choice using its label.
Solution: B

The reported numbers originate from patent US11970463B2.
